Test: Metabolic stability in human liver microsomes assessed as intrinsic clearance measured per mg of protein in presence of NADPH measured upto 60 mins in presence of 10 uM sulfaphenazole by LC-MS/MS analysis
Type: ADME, Microsome
Settings: 1 h
readout name: CLint (µL/min/mg)

INSERT INTO results (smiles_repr, readout_name, numeric_result) VALUES
  ('CC(C)N(C(=O)SCCCCCCC(=O)Nc1nc(-c2ccc(F)cc2)cs1)C(C)C', 'CLint', 1370);

1: CN(C)C(=O)SCCCCCCC(=O)Nc1nc(-c2ccc(F)cc2)cs1
2: CNC(=O)SCCCCCCC(=O)Nc1nc(-c2ccc(F)cc2)cs1
3: CC(C)(C)C(=O)NCSCCCCCCC(=O)Nc1nc(-c2ccc(F)cc2)cs1
// sort entries: CLint, high to low Returns: the labels arranged in the requested order. 3, 1, 2
(3: 1490 µL/min/mg, 1: 716 µL/min/mg, 2: 276 µL/min/mg)

====

Experiment: Metabolic stability in human liver microsomes assessed as half life in presence of NADPH measured upto 60 mins in presence of 5 mM BNPP carboxylesterase inhibitor by LC-MS/MS analysis
Type: ADME, Microsome
Settings: with BNPP (carboxylesterase inhibitor)
readout name: half-life (min)

Some solved entries appear below for comparison.
INSERT INTO measurements (smiles_repr, readout_name, numeric_result) VALUES
  ('CCOP(=O)(OCC)SCCCCCCC(=O)Nc1nc(-c2ccc(F)cc2)cs1', 'half-life', 54.5),
  ('COP(=O)(OC)SCCCCCCC(=O)Nc1nc(-c2ccc(F)cc2)cs1', 'half-life', 165);

1: CC(=O)SCCCCCCC(=O)Nc1nc(-c2ccc(F)cc2)cs1
2: COC(=O)SCCCCCCC(=O)Nc1nc(-c2ccc(F)cc2)cs1
3: CCCCSSCCCCCCC(=O)Nc1nc(-c2ccc(F)cc2)cs1
Let's sort these by half-life, smallest first. Go ahead? Returns: the labels arranged in the requested order. 1, 3, 2
(1: 5.78 min, 3: 10.1 min, 2: 28.2 min)

====

Assay: Metabolic stability in human liver microsomes assessed as intrinsic clearance measured per mg of protein in presence of NADPH measured upto 60 mins in presence of 10 uM montelukast by LC-MS/MS analysis
Assay type: ADME, Microsome
Details: 1 h
readout name: CLint (µL/min/mg)

Some solved entries appear below for comparison.
INSERT INTO assay_data (smiles_repr, readout_name, numeric_result) VALUES
  ('CNC(=O)SCCCCCCC(=O)Nc1nc(-c2ccc(F)cc2)cs1', 'CLint', 203),
  ('CC(C)(C)C(=O)NCSCCCCCCC(=O)Nc1nc(-c2ccc(F)cc2)cs1', 'CLint', 1140),
  ('CC(C)N(C(=O)SCCCCCCC(=O)Nc1nc(-c2ccc(F)cc2)cs1)C(C)C', 'CLint', 1680);

a: CC(=O)NCSCCCCCCC(=O)Nc1nc(-c2ccc(F)cc2)cs1
b: CN(C)C(=O)SCCCCCCC(=O)Nc1nc(-c2ccc(F)cc2)cs1
When the recorded CLint values are compared, which is smaller: that of a or that of b ? Use the label to indicate which entry you chose. a
(a: 150 µL/min/mg, b: 365 µL/min/mg)

====

Assay: Ratio of half life in human liver microsomes in presence of ABT to t1/2 in human liver microsomes absence of ABT
Format: ADME, Microsome
readout name: Ratio

Some solved entries appear below for comparison.
INSERT INTO assay_data (smiles_repr, numeric_result) VALUES
  ('COP(=O)(OC)SCCCCCCC(=O)Nc1nc(-c2ccc(F)cc2)cs1', 4.46),
  ('CCCCSSCCCCCCC(=O)Nc1nc(-c2ccc(F)cc2)cs1', 2.78),
  ('CC(C)N(C(=O)SCCCCCCC(=O)Nc1nc(-c2ccc(F)cc2)cs1)C(C)C', 9.6);

1: CC(C)(C)SSCCCCCCC(=O)Nc1nc(-c2ccc(F)cc2)cs1
2: CC(C)(C)C(=O)NCSCCCCCCC(=O)Nc1nc(-c2ccc(F)cc2)cs1
When the recorded Ratio values are compared, which is smaller: that of 1 or that of 2 ? Use the label to indicate which entry you chose. 1
(1: 2.13, 2: 101.23)

====

Assay: Stability in human plasma assessed as half life at pH 7.4 measured upto 5 hrs by LC-MS/MS analysis
Type: ADME, cell-free
As shown below, each of these molecules has a reported half-life value.

Some solved entries appear below for comparison.
INSERT INTO measurements (smiles_repr, readout_name, result) VALUES
  ('CC(C)N(C(=O)SCCCCCCC(=O)Nc1nc(-c2ccc(F)cc2)cs1)C(C)C', 'half-life', '> 5 h'),
  ('O=C(CCCCCCSSC1CCCCC1)Nc1nc(-c2ccc(F)cc2)cs1', 'half-life', '> 5 h'),
  ('COC(=O)SCCCCCCC(=O)Nc1nc(-c2ccc(F)cc2)cs1', 'half-life', '> 5 h'),
  ('CCCCCNC(=O)SCCCCCCC(=O)Nc1nc(-c2ccc(F)cc2)cs1', 'half-life', '> 5 h'),
  ('O=C(CCCCCCSC(=O)Cc1ccccc1)Nc1nc(-c2ccc(F)cc2)cs1', 'half-life', '> 2.67 h');

Reported half-life ( CC(C)(C)C(=O)SCCCCCCC(=O)Nc1nc(-c2ccc(F)cc2)cs1 ) = > 5 h

Reported half-life ( CC(C)(C)C(=O)NCSCCCCCCC(=O)Nc1nc(-c2ccc(F)cc2)cs1 ) = > 5 h

Reported half-life ( COP(=O)(OC)SCCCCCCC(=O)Nc1nc(-c2ccc(F)cc2)cs1 ) = > 5 h

Reported half-life ( O=C(CCCCCCSC(=O)N1CCCC1)Nc1nc(-c2ccc(F)cc2)cs1 ) = > 5 h

Reported half-life ( O=C(CCCCCCSP(=O)(c1ccccc1)c1ccccc1)Nc1nc(-c2ccc(F)cc2)cs1 ) = > 5 h

====

Experiment: Metabolic stability in human liver microsomes assessed as half life in presence of NADPH measured upto 60 mins in presence of 2 uM ticlopidine by LC-MS/MS analysis
Format: ADME, Microsome
Settings: with ticlopidine
readout name: half-life (min)

Some solved entries appear below for comparison.
INSERT INTO assay_data (smiles_repr, numeric_result) VALUES
  ('CC(C)N(C(=O)SCCCCCCC(=O)Nc1nc(-c2ccc(F)cc2)cs1)C(C)C', 1.39),
  ('CC(=O)NCSCCCCCCC(=O)Nc1nc(-c2ccc(F)cc2)cs1', 8.09);

P: CNC(=O)SCCCCCCC(=O)Nc1nc(-c2ccc(F)cc2)cs1
Q: CC(C)(C)C(=O)NCSCCCCCCC(=O)Nc1nc(-c2ccc(F)cc2)cs1
R: CN(C)C(=O)SCCCCCCC(=O)Nc1nc(-c2ccc(F)cc2)cs1
Let's sort these by half-life, smallest first. Go ahead? Returns: the labels arranged in the requested order. Q, R, P

====

Test: Metabolic stability in human liver microsomes assessed as half life in presence of NADPH measured upto 60 mins in presence of 2.5 mM ABT cytochrome P450 inhibitor by LC-MS/MS analysis
Assay type: ADME, Microsome
Settings: with ABT (cytochrome P450 inhibitor)
readout name: half-life (min)

INSERT INTO assay_data (smiles_repr, numeric_result) VALUES
  ('CC(=O)SCCCCCCC(=O)Nc1nc(-c2ccc(F)cc2)cs1', 0.53);

P: CC(C)N(C(=O)SCCCCCCC(=O)Nc1nc(-c2ccc(F)cc2)cs1)C(C)C
Q: O=C(CCCCCCSC(=O)c1ccc(C(F)(F)F)cc1)Nc1nc(-c2ccc(F)cc2)cs1
R: CCCCSSCCCCCCC(=O)Nc1nc(-c2ccc(F)cc2)cs1
S: CC(C)(C)SSCCCCCCC(=O)Nc1nc(-c2ccc(F)cc2)cs1
T: CC(C)(C)C(=O)NCSCCCCCCC(=O)Nc1nc(-c2ccc(F)cc2)cs1
Let's sort these by half-life, smallest first. Go ahead? Returns: the labels arranged in the requested order. Q, R, S, P, T

====

Test: Metabolic stability in human liver microsomes assessed as half life in presence of NADPH measured upto 60 mins in presence of 10 uM sulfaphenazole by LC-MS/MS analysis
Format: ADME, Microsome
Conditions: with sulfaphenazole
readout name: half-life (min)

INSERT INTO measurements (smiles_repr, readout_name, numeric_result) VALUES
  ('CNC(=O)SCCCCCCC(=O)Nc1nc(-c2ccc(F)cc2)cs1', 'half-life', 7.61),
  ('CC(C)N(C(=O)SCCCCCCC(=O)Nc1nc(-c2ccc(F)cc2)cs1)C(C)C', 'half-life', 1.53);

I: CC(C)(C)C(=O)NCSCCCCCCC(=O)Nc1nc(-c2ccc(F)cc2)cs1
II: CN(C)C(=O)SCCCCCCC(=O)Nc1nc(-c2ccc(F)cc2)cs1
III: CC(=O)NCSCCCCCCC(=O)Nc1nc(-c2ccc(F)cc2)cs1
Let's sort these by half-life, smallest first. Go ahead? Returns: the labels arranged in the requested order. I, II, III
(I: 1.41 min, II: 2.94 min, III: 9.66 min)

// provenance: ChEMBL document CHEMBL6114955
